melting point values by entry

O=C(C[C@@H](CCCC1CCCCC1)c1nc(CNC2CCCCC2)no1)NO [Example 41]: 127 °C
O=C(C[C@@H](CCCC1CCCCC1)c1nc(CN2CCOCC2)no1)NO [Example 65]: 138 to 139 °C
O=C(C[C@@H](CCCC1CCCCC1)c1nc(CNC2CCC2)no1)NO [Example 39]: 82 to 83.9 °C
CC(C)CNCc1noc([C@H](CCCC2CCCCC2)CC(=O)NO)n1 [Example 35]: 97.8 to 99 °C
CCNCc1noc([C@H](CCCC2CCCCC2)CC(=O)NO)n1 [Example 32]: 69.4 to 71.4 °C
O=C(C[C@@H](CCCC1CCCCC1)c1nc(CN2CCC(O)CC2)no1)NO [Example 64]: 85 °C
CCCNCc1noc([C@H](CCCC2CCCCC2)CC(=O)NO)n1 [Example 33]: 90.4 to 91.8 °C
Cc1oc([C@H](CCCC2CCCCC2)CC(=O)NO)nc1CNC1CCOCC1 [Example 71]: 108 to 110 °C
O=C(C[C@@H](CCCC1CCCCC1)c1nc(CN2CCOCC2)co1)NO [Example 70]: 117 to 119 °C
CCC(CC)NCc1noc([C@H](CCCC2CCCCC2)CC(=O)NO)n1 [Example 37]: 102.7 to 104.3 °C

melting point for O=C(C[C@@H](CCCC1CCCCC1)c1nc(CNC2CCCC2)co1)NO [Example 69] ?
124 to 127 °C

// repeat for COCCCNCc1noc([C@H](CCCC2CCCCC2)CC(=O)NO)n1 [Example 45] and report
60 °C

// repeat for O=C(C[C@@H](CCCC1CCCCC1)c1nc(CNC2CCOCC2)no1)NO [Example 50] and report
108.9 to 110.3 °C
